experiment: Water (aqueous) solubility; format: physicochemical; details: aqueous medium
QUANTITY KIND: solubility (µg/mL)
Respond numerically; units are µg/mL and should not be typed.

Given the molecule CC(C)(C)NC(=O)C(c1c(C(=O)O)[nH]c2cc(Cl)ccc12)N(C=O)Cc1cc(F)c(F)c(F)c1 (stereo not shown) , what is its reported solubility?
850

* * *

Consider the following molecules and their measured Ki readings.
biological target: Mdm2 (Homo sapiens (Human)); experiment: Fluorescence polarization (FP) competition binding assay with Mdm2; settings: read-out: Ki (inhibition constant); Table 1, compounds 8 (C-2 ethyl esters), FP assay; n.i. = no interaction
Sequence (Q00987 whole entry): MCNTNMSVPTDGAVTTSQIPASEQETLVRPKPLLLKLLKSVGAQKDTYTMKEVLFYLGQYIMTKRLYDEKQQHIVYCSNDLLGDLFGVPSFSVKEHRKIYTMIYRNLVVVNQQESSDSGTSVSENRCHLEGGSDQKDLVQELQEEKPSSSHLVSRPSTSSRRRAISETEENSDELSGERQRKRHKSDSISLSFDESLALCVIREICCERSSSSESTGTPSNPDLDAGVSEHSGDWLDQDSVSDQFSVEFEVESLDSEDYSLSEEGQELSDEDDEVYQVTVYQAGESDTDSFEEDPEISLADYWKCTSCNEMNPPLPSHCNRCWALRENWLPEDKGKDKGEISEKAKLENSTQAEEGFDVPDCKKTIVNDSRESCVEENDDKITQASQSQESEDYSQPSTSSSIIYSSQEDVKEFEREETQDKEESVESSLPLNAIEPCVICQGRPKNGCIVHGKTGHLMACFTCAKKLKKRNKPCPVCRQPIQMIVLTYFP
Respond numerically; units are µM and should not be typed.

Below are worked cases with known answers.
CCOC(=O)c1[nH]c2cc(Cl)ccc2c1C(C(=O)NC1CCCCC1)N(Cc1ccc(Cl)c(Cl)c1)C(C)=O (stereo not shown)	9
CCOC(=O)c1[nH]c2cc(Cl)ccc2c1C(C(=O)NC1CCCCC1)N(C=O)Cc1ccc(Cl)cc1 (stereo not shown)	50
CCOC(=O)c1[nH]c2cc(Cl)ccc2c1C(C(=O)NC1CCCCC1)N(C=O)Cc1ccc(F)cc1 (stereo not shown)	30

Moving on to the next molecule.
Given the molecule CCOC(=O)c1[nH]c2cc(Cl)ccc2c1C(C(=O)NCc1ccccc1)N(CC(C)C)C(C)=O (stereo not shown) , what is its reported Ki?
4
